Task for the reader: assign each of the following molecules its reported Remaining (T = 60 min).
Test: In vitro microsomal metabolic stability, CD-1 mouse liver microsomes
Format: in vitro ADME
Conditions: Mouse liver microsomes, with NADPH, 60 min
Numbers only, in %.

{"Molecule": "COc1cccc(NC2C[C@@H]3CC[C@@H](C)[C@@](O)(O3)C(=O)C(=O)N3CCCCC3C(=O)O[C@H]([C@H](C)C[C@@H]3CC[C@@H](O)[C@H](OC)C3)CC[C@H](C)/C=C(\\C)[C@@H](O)[C@@H](OC)C(=O)[C@H](C)C[C@H](C)/C=C/C=C/C=C/2C)c1 (some centres unmarked)", "Scale unit": "%", "Remaining (T = 60 min)": 31}

Moving on to another molecule below.
Req: Would you kindly share the measured Remaining (T = 60 min) for CO[C@@H]1C[C@H](C[C@@H](C)[C@@H]2CC[C@H](C)/C=C(\C)[C@@H](O)[C@@H](OC)C(=O)[C@H](C)C[C@H](C)/C=C/C=C/C=C(\C)C(Nc3ccc(C)cc3)C[C@@H]3CC[C@@H](C)[C@@](O)(O3)C(=O)C(=O)N3CCCCC3C(=O)O2)CC[C@H]1O (some centres unmarked) ?
Resp: 67
